- assay protocol: Log P value by using Octanol / pH 7.4 buffer
- Format: physicochemical
# logD annotations
reported property: logD

molecule | endpoint value
CN1C(=O)c2ccc(Br)cc2C2(CC(=O)NC2=O)C1=O (centres undefined) | 0.8
O=C1CC2(C(=O)N1)C(=O)N(Cc1nc3cc(C(F)(F)F)ccc3s1)C(=O)c1ccc(F)cc12 (centres undefined) | 3.16
O=C1CC2(C(=O)N1)C(=O)N(Cc1ccc(Br)cc1F)C(=O)c1cc(Cl)ccc12 (centres undefined) | 3.51
CN1C(=O)c2ccc(Cl)cc2C2(CC(=O)NC2=O)C1=O (centres undefined) | 0.58
O=C1CC2(C(=O)N1)C(=O)N(Cc1ccc(Cl)c(Cl)c1)C(=O)c1ccccc12 (centres undefined) | 3.09
O=C1CC2(C(=O)N1)C(=O)N(Cc1ccc(Br)cc1F)C(=O)c1ccccc12 (centres undefined) | 2.74
CN1C(=O)c2ccccc2C2(CC(=O)NC2=O)C1=O (centres undefined) | 0.24
O=C1CC2(C(=O)N1)C(=O)N(Cc1ccc(Br)cc1F)C(=O)c1ccc(F)cc12 (centres undefined) | 2.81
O=C1CC2(C(=O)N1)C(=O)N(Cc1nc3cc(C(F)(F)F)ccc3s1)C(=O)c1ccccc12 (centres undefined) | 3.17

* * *

- target system: Aldo-keto reductase family 1 member B1 (Bos taurus)
- assay protocol: Inhibition of aldose reductase activity in a partially purified bovine lens preparation at 4*10e-8 M
Measured inhibition of individual entries

molecule | result unit | inhibition
CCCCN1C(=O)c2ccccc2C2(CC(=O)NC2=O)C1=O (stereo unspecified) | % | 19
CN1C(=O)c2ccc([N+](=O)[O-])cc2C2(CC(=O)NC2=O)C1=O (stereo unspecified) | % | 53
CN1C(=O)c2cc(Cl)ccc2C2(CC(=O)NC2=O)C1=O (stereo unspecified) | % | 34
COc1cc2c(cc1Cl)C1(CC(=O)NC1=O)C(=O)N(C)C2=O (stereo unspecified) | % | 66
CN1C(=O)c2ccc(C(F)(F)F)cc2C2(CC(=O)NC2=O)C1=O (stereo unspecified) | % | 46
COc1ccc2c(c1)C1(CC(=O)NC1=O)C(=O)N(C)C2=O (stereo unspecified) | % | 30
COc1ccc2c(c1)C(=O)N(C)C(=O)C21CC(=O)NC1=O (stereo unspecified) | % | 41
CN1C(=O)c2cc(Cl)c(Cl)cc2C2(CC(=O)NC2=O)C1=O (stereo unspecified) | % | 84
CCN1C(=O)c2ccccc2C2(CC(=O)NC2=O)C1=O (stereo unspecified) | % | 17
CN1C(=O)c2cccc(Cl)c2C2(CC(=O)NC2=O)C1=O (stereo unspecified) | % | 11
CN1C(=O)c2ccccc2C2(CC(=O)NC2=O)C1=O (stereo unspecified) | % | 38
CON1C(=O)c2ccc(Cl)cc2C2(CC(=O)NC2=O)C1=O (stereo unspecified) | % | 11
CN1C(=O)c2ccc(Cl)cc2C2(CC(=O)NC2=O)C1=O (stereo unspecified) | % | 43
Cc1ccc2c(c1)C1(CC(=O)NC1=O)C(=O)N(C)C2=O (stereo unspecified) | % | 35
CN1C(=O)c2ccc(F)cc2C2(CC(=O)NC2=O)C1=O (stereo unspecified) | % | 36
CN1C(=O)c2ccc(Br)cc2C2(CC(=O)NC2=O)C1=O (stereo unspecified) | % | 43
